What MIC KP was measured for each of the following?
- Tested on: K. pneumoniae (ATCC 13883)
- Type: cell-based, Klebsiella pneumoniae
- details: K. pneumoniae ATCC 13883; MHB-II, inoculum 5 × 10^5 CFU/mL, 37 °C, 18–24 h, triplicate
Non-standard residues stand in square brackets, D forms with d. Residues, ends and D or L forms follow the SMILES beside them. *: point of attachment. Lauroyl = CCCCCCCCCCCC(=O)*; Butyryl = CCCC(=O)*

q: // Input: CCCC(=O)N[C@H](CCCCN)C(=O)N[C@H](CCCCN)C(=O)N[C@H](CC(C)C)C(=O)N[C@H](Cc1ccccc1)C(=O)N[C@H](CCCCN)C(=O)N[C@H](CCCCN)C(=O)N[C@@H](C(=O)N[C@H](CC(C)C)C(=O)N[C@H](CCCNC(=N)N)C(=O)N[C@H](Cc1ccc(O)cc1)C(=O)N[C@H](CC(C)C)C(N)=O)[C@H](C)CC [compound 1] (Butyryl-[dK][dK][dL][dF][dK][dK][dI][dL][dR][dY][dL]-NH2) . Output its MIC KP only.
a: 4 µg/mL

q: // Input: CCCCCCCCCCCCCC(=O)N[C@H](CCCCN)C(=O)N[C@H](CCCCN)C(=O)N[C@H](CC(C)C)C(=O)N[C@H](Cc1ccccc1)C(=O)N[C@H](CCCCN)C(=O)N[C@H](CCCCN)C(=O)N1CCCC[C@H](C(N)=O)NC(=O)[C@@H](Cc2ccc(O)cc2)NC(=O)[C@@H](CCCNC(=N)N)NC(=O)[C@@H](CC(C)C)NC(=O)[C@@H]([C@H](C)CC)NC(=O)C1 [compound 18] . Output its MIC KP only.
a: 32 µg/mL

q: // Input: CCCCCCCCCCCC(=O)N[C@H](CCCCN)C(=O)N[C@H](CCCCN)C(=O)N[C@H](CC(C)C)C(=O)N[C@H](Cc1ccccc1)C(=O)N[C@H](CCCCN)C(=O)N[C@H](CCCCN)C(=O)N[C@@H](C(=O)N1CCCC[C@H](C(N)=O)NC(=O)[C@@H](Cc2ccc(O)cc2)NC(=O)[C@@H](CCCNC(=N)N)NC(=O)[C@@H](CC(C)C)NC(=O)C1)[C@H](C)CC [compound 14] . Output its MIC KP only.
a: 16 µg/mL

q: // Input: CCCCCCCCCCCC(=O)N[C@H](CCCCN)C(=O)N[C@H](CCCCN)C(=O)N[C@H](CC(C)C)C(=O)N[C@H](Cc1ccccc1)C(=O)N[C@H](CCCCN)C(=O)N[C@H](CCCCN)C(=O)N[C@@H](C(=O)N[C@H](CC(C)C)C(=O)N[C@H](CCCNC(=N)N)C(=O)N[C@H](Cc1ccc(O)cc1)C(=O)N[C@H](CC(C)C)C(N)=O)[C@H](C)CC [compound 5] (Lauroyl-[dK][dK][dL][dF][dK][dK][dI][dL][dR][dY][dL]-NH2) . Output its MIC KP only.
a: 64 µg/mL

q: // Input: CC[C@@H](C)[C@@H](NC(=O)[C@@H](CCCCN)NC(=O)[C@@H](CCCCN)NC(=O)[C@@H](Cc1ccccc1)NC(=O)[C@@H](CC(C)C)NC(=O)[C@@H](CCCCN)NC(=O)[C@H](N)CCCCN)C(=O)N[C@H](CC(C)C)C(=O)N1CCCC[C@H](C(N)=O)NC(=O)[C@@H](Cc2ccc(O)cc2)NC(=O)[C@@H](CCCNC(=N)N)NC(=O)C1 [compound 7] . Output its MIC KP only.
a: > 64 µg/mL

q: // Input: CCCCCCCCCCCC(=O)N[C@H](CCCCN)C(=O)N[C@H](CCCCN)C(=O)N[C@H](CC(C)C)C(=O)N[C@H](Cc1ccccc1)C(=O)N[C@H](CCCCN)C(=O)N[C@H](CCCCN)C(=O)N[C@@H](C(=O)N[C@H](CC(C)C)C(=O)N1CCCC[C@H](C(N)=O)NC(=O)[C@@H](Cc2ccc(O)cc2)NC(=O)[C@@H](CCCNC(=N)N)NC(=O)C1)[C@H](C)CC [compound 11] . Output its MIC KP only.
a: 8 µg/mL
